tested on: P388; assay: In vivo for antitumor activity against P388 leukemia.; assay type: functional, Mus musculus
Category | rule: reported OD within range, see bottom range: < 10 mg/kg; center range: ≥ 10 mg/kg and < 60 mg/kg; top range: ≥ 60 mg/kg

{"columns": ["Smiles repr", "Assigned label"],
 "data": [
  ["CNc1cc(NS(C)(=O)=O)ccc1Nc1c2ccccc2nc2ccc(Cl)cc12", "top range"],
  ["CNc1cc(NS(C)(=O)=O)ccc1Nc1c2ccccc2nc2c(F)cccc12", "center range"],
  ["CNc1cc(NS(C)(=O)=O)ccc1Nc1c2ccccc2nc2ccccc12", "center range"],
  ["CNC(=O)c1cccc2c(Nc3ccc(NS(C)(=O)=O)cc3NC)c3cccc(C)c3nc12", "center range"],
  ["CNC(=O)c1cccc2c(Nc3ccc(NS(C)(=O)=O)cc3NC)c3ccc(Cl)cc3nc12", "center range"],
  ["CNc1cc(NS(C)(=O)=O)ccc1Nc1c2ccccc2nc2ccc(C)cc12", "top range"],
  ["CNc1cc(NS(C)(=O)=O)ccc1Nc1c2ccccc2nc2cc(OC)ccc12", "bottom range"],
  ["CNc1cc(NS(C)(=O)=O)ccc1Nc1c2ccccc2nc2c(C(N)=O)cccc12", "center range"],
  ["CNC(=O)c1cccc2c(Nc3ccc(NS(C)(=O)=O)cc3NC)c3ccccc3nc12", "top range"],
  ["CNc1ccc2c(Nc3ccc(NS(C)(=O)=O)cc3NC)c3ccccc3nc2c1", "bottom range"],
  ["CNc1cc(NS(C)(=O)=O)ccc1Nc1c2ccc(C)cc2nc2c(OC)cccc12", "center range"],
  ["CNc1cc(NS(C)(=O)=O)ccc1Nc1c2ccccc2nc2ccc(OC)cc12", "top range"],
  ["CNc1cc(NS(C)(=O)=O)ccc1Nc1c2ccc(C)cc2nc2c(C)cccc12", "bottom range"],
  ["CNc1cc(NS(C)(=O)=O)ccc1Nc1c2ccc(Cl)cc2nc2c(OC)cccc12", "top range"],
  ["CNc1cc(NS(C)(=O)=O)ccc1Nc1c2ccc(OC)cc2nc2c(C)cccc12", "bottom range"],
  ["CNc1cc(NS(C)(=O)=O)ccc1Nc1c2ccccc2nc2c(C(=O)NCC(N)=O)cccc12", "top range"],
  ["CNc1cc(NS(C)(=O)=O)ccc1Nc1c2ccc(Br)cc2nc2c(OC)cccc12", "top range"],
  ["CNc1cc(NS(C)(=O)=O)ccc1Nc1c2cccc(C)c2nc2c(C)cccc12", "center range"],
  ["CNc1cc(NS(C)(=O)=O)ccc1Nc1c2ccc(F)cc2nc2c(C)cccc12", "center range"],
  ["CNc1cc(NS(C)(=O)=O)ccc1Nc1c2ccccc2nc2cc(NC(=O)OC)ccc12", "center range"]
]}

---

tested on: poly[d(A-T)]; experiment: Binding constant relative to amsacrine (Δlog K) for DNA binding by ethidium bromide displacement; settings: Bos taurus
Record yes (1) whenever Δlog K is at 0.4 or higher; record no (0) when lower.

{"columns": ["Smiles repr", "Target of assay", "Assigned label"],
 "data": [
  ["COc1cc(NS(C)(=O)=O)ccc1Nc1c2ccccc2nc2ccc(C)cc12", "poly[d(A-T)]", "no (0)"],
  ["CNc1cc(NS(C)(=O)=O)ccc1Nc1c2ccccc2nc2c1ccc1ccccc12", "poly[d(A-T)]", "yes (1)"],
  ["CNc1cc(NS(C)(=O)=O)ccc1Nc1c2ccccc2nc2cc(C)ccc12", "poly[d(A-T)]", "yes (1)"],
  ["CNc1cc(NS(C)(=O)=O)ccc1Nc1c2ccccc2nc2c(C(=O)NCC(N)=O)cccc12", "poly[d(A-T)]", "yes (1)"],
  ["CNc1ccc2c(Nc3ccc(NS(C)(=O)=O)cc3NC)c3ccccc3nc2c1", "poly[d(A-T)]", "yes (1)"],
  ["CNc1cc(NS(C)(=O)=O)ccc1Nc1c2ccccc2nc2cc([N+](=O)[O-])ccc12", "poly[d(A-T)]", "yes (1)"],
  ["CNC(=O)c1ccc(Cl)c2c(Nc3ccc(NS(C)(=O)=O)cc3NC)c3ccccc3nc12", "poly[d(A-T)]", "yes (1)"],
  ["COc1cc(NS(C)(=O)=O)ccc1Nc1c2ccccc2nc2c(OC)cccc12", "poly[d(A-T)]", "no (0)"],
  ["COc1cc(NS(C)(=O)=O)ccc1Nc1c2ccccc2nc2cc(F)ccc12", "poly[d(A-T)]", "no (0)"]
]}

---

test system: P388; assay: In vivo for antitumor activity against P388 leukemia; type: functional, Mus musculus

{"columns": ["Smiles repr", "Unit", "D50"],
 "data": [
  ["CNc1cc(NS(C)(=O)=O)ccc1Nc1c2ccc(Cl)cc2nc2c(C)cccc12", "mg/kg", 5],
  ["CNc1cc(NS(C)(=O)=O)ccc1Nc1c2ccc(OC)cc2nc2c(C)cccc12", "mg/kg", 0.3],
  ["CNc1cc(NS(C)(=O)=O)ccc1Nc1c2ccccc2nc2c(Cl)cccc12", "mg/kg", 65],
  ["CNc1cc(NS(C)(=O)=O)ccc1Nc1c2ccccc2nc2c(C)c(C)ccc12", "mg/kg", 7]
]}

---

Reported D50 values are given for each entry in this list.
tested on: P388; assay: In vivo for antitumor activity against P388 leukemia; format: functional, Mus musculus

{"columns": ["Smiles repr", "D50 (mg/kg)"],
 "data": [
  ["CNc1cc(NS(C)(=O)=O)ccc1Nc1c2ccccc2nc2c(C(N)=O)cccc12", 25],
  ["CNc1cc(NS(C)(=O)=O)ccc1Nc1c2ccc(F)cc2nc2c(C)cccc12", 6],
  ["CNc1ccc2c(Nc3ccc(NS(C)(=O)=O)cc3NC)c3ccccc3nc2c1", 0.2],
  ["CNc1cc(NS(C)(=O)=O)ccc1Nc1c2ccccc2nc2ccc(C)cc12", 55],
  ["CNc1cc(NS(C)(=O)=O)ccc1Nc1c2ccccc2nc2cc([N+](=O)[O-])ccc12", 3]
]}

---

test system: P388; assay: In vivo for antitumor activity against P388 leukemia.; type: functional, Mus musculus

{"columns": ["Smiles repr", "OD / mg/kg"],
 "data": [
  ["CNC(=O)c1ccc(Cl)c2c(Nc3ccc(NS(C)(=O)=O)cc3NC)c3ccccc3nc12", 150],
  ["CNc1cc(NS(C)(=O)=O)ccc1Nc1c2ccc(F)cc2nc2c(OC)cccc12", 65],
  ["CNc1cc(NS(C)(=O)=O)ccc1Nc1c2ccccc2nc2c(Br)cccc12", 100],
  ["CNc1cc(NS(C)(=O)=O)ccc1Nc1c2ccccc2nc2c(Cl)cccc12", 100]
]}

---

tested on: P388; test: In vivo for antitumor activity against P388 leukemia; type: functional, Mus musculus
# 1 = D50 below 9 mg/kg (exclusive); -1 = D50 at/above 9 mg/kg

{"columns": ["Smiles repr", "Target of assay", "Assigned label"],
 "data": [
  ["CNc1cc(NS(C)(=O)=O)ccc1Nc1c2ccccc2nc2cc(C)ccc12", "P388", 1],
  ["CNc1cc(NS(C)(=O)=O)ccc1Nc1c2cccc(C)c2nc2c(C)cccc12", "P388", 1],
  ["CNc1cc(NS(C)(=O)=O)ccc1Nc1c2ccccc2nc2cc(OC)ccc12", "P388", 1],
  ["CNc1cc(NS(C)(=O)=O)ccc1Nc1c2ccc(C)cc2nc2c(OC)cccc12", "P388", 1],
  ["CNc1cc(NS(C)(=O)=O)ccc1Nc1c2ccccc2nc2cc(F)ccc12", "P388", -1],
  ["CNc1cc(NS(C)(=O)=O)ccc1Nc1c2ccc(F)cc2nc2c(OC)cccc12", "P388", -1],
  ["CNc1cc(NS(C)(=O)=O)ccc1Nc1c2ccccc2nc2cc(Cl)ccc12", "P388", -1],
  ["CNc1cc(NS(C)(=O)=O)ccc1Nc1c2ccccc2nc2c(C)cccc12", "P388", 1]
]}

---

Reported log10 OD values are given for each entry in this list.
tested on: Lewis lung carcinoma cell line; test: In vivo for antitumor activity against Lewis lung carcinoma; format: functional, Mus musculus
Measurement type: log10 OD (log10 of the value in mg/kg)

{"columns": ["Smiles repr", "log10 OD"],
 "data": [
  ["CNc1cc(NS(C)(=O)=O)ccc1Nc1c2ccccc2nc2cc(Cl)ccc12", 1.30],
  ["CNc1cc(NS(C)(=O)=O)ccc1Nc1c2ccccc2nc2c(Br)cccc12", 2.00],
  ["CNc1cc(NS(C)(=O)=O)ccc1Nc1c2ccccc2nc2cc(C)ccc12", 0.95],
  ["CNc1cc(NS(C)(=O)=O)ccc1Nc1c2ccccc2nc2cc(NC(=O)OC)ccc12", 0.95],
  ["CNc1cc(NS(C)(=O)=O)ccc1Nc1c2ccccc2nc2ccc(C)cc12", 2.00],
  ["CNC(=O)c1cccc2c(Nc3ccc(NS(C)(=O)=O)cc3NC)c3cccc(OC)c3nc12", 1.81],
  ["CNc1cc(NS(C)(=O)=O)ccc1Nc1c2ccccc2nc2c(C(N)=O)cccc12", 1.48],
  ["CNc1cc(NS(C)(=O)=O)ccc1Nc1c2ccc(F)cc2nc2c(OC)cccc12", 1.81],
  ["CNc1cc(NS(C)(=O)=O)ccc1Nc1c2ccccc2nc2cc(I)ccc12", 1.48],
  ["CNC(=O)c1cccc2c(Nc3ccc(NS(C)(=O)=O)cc3NC)c3ccc(Cl)cc3nc12", 1.48],
  ["CNc1cc(NS(C)(=O)=O)ccc1Nc1c2ccccc2nc2cc([N+](=O)[O-])ccc12", 0.95],
  ["CNc1cc(NS(C)(=O)=O)ccc1Nc1c2ccccc2nc2cc(OC)ccc12", 1.30],
  ["CNc1cc(NS(C)(=O)=O)ccc1Nc1c2ccccc2nc2c(C(=O)NCC(N)=O)cccc12", 1.65],
  ["CNc1cc(NS(C)(=O)=O)ccc1Nc1c2ccccc2nc2cc(F)ccc12", 1.65]
]}
